# Test system: Rattus norvegicus
# Test description: Incidence of arrhythmias in rats after a intravenal administration at 4 mg/kg, expressed as no. of positive cases out of no. of tested cases (10)
# Type: functional
Assay readout: No. of positive cases

{"Compound": "CC(=O)Nc1ccc(CNCCCNC(=O)C2=CC(C)(C)NC2(C)C)cc1", "Tested on": "Rattus norvegicus", "Assay readout": "No. of positive cases", "Assay value": 2}
{"Compound": "Cc1nc2ccccc2c(=O)n1CCCNC(=O)C1CC(C)(C)NC1(C)C (configuration not stated)", "Tested on": "Rattus norvegicus", "Assay readout": "No. of positive cases", "Assay value": 3}
{"Compound": "COc1cc(CNCCNC(=O)C2=CC(C)(C)NC2(C)C)cc(OC)c1OC", "Tested on": "Rattus norvegicus", "Assay readout": "No. of positive cases", "Assay value": 2}
{"Compound": "CC1(C)C=C(C(=O)NCCCNC(=O)c2cccs2)C(C)(C)N1", "Tested on": "Rattus norvegicus", "Assay readout": "No. of positive cases", "Assay value": 4}
{"Compound": "C=CCOc1ccc(CNCCCNC(=O)C2=CC(C)(C)NC2(C)C)cc1", "Tested on": "Rattus norvegicus", "Assay readout": "No. of positive cases", "Assay value": 6}
{"Compound": "CC1(C)CC(C(=O)NCCCNCc2ccc(C(F)(F)F)cc2)C(C)(C)N1 (configuration not stated)", "Tested on": "Rattus norvegicus", "Assay readout": "No. of positive cases", "Assay value": 9}

Please tell me the measured No. of positive cases for COc1ccc(CNCCNC(=O)C2=CC(C)(C)NC2(C)C)cc1OC ; system: Rattus norvegicus.
2

Please tell me the measured No. of positive cases for CC1(C)CC(C(=O)NCCCNCc2cccs2)C(C)(C)N1 (configuration not stated) ; system: Rattus norvegicus.
10

###

# Test description: Acute toxicity determined after intravenal administration in mice
# Format: organism-based
# Experimental context: mouse, in vivo, iv
Reported LD50 values are given for each entry in this list.
Quick reminder: number only, in mg/kg, skip the unit.

{"Compound": "C/C=C/c1ccc(OCC(=O)NCCCNC(=O)C2=CC(C)(C)NC2(C)C)c(OC)c1", "Assay readout": "LD50", "Assay value": 30}

Indicate the recorded LD50 value for this compound: COc1cccc(CNCCCNC(=O)C2=CC(C)(C)NC2(C)C)c1OCc1ccccc1
6.2

Indicate the recorded LD50 value for this compound: CC1(C)C=C(C(=O)NCCCNCc2cccc(O)c2)C(C)(C)N1
17

Indicate the recorded LD50 value for this compound: COc1cc(CNCCCNC(=O)C2=CC(C)(C)NC2(C)C)ccc1O
8.7

Indicate the recorded LD50 value for this compound: CC1(C)C=C(C(=O)NCCCNCc2ccc(C(F)(F)F)cc2)C(C)(C)N1
65

Indicate the recorded LD50 value for this compound: CC1(C)C=C(C(=O)NCCCNC(=O)C(O)c2ccccc2)C(C)(C)N1 (configuration not stated)
52

Indicate the recorded LD50 value for this compound: Cc1cccc(C)c1NC(=O)CNCCCNC(=O)C1=CC(C)(C)NC1(C)C
7.4

Indicate the recorded LD50 value for this compound: CC1(C)C=C(C(=O)NCCNC(=O)C2CC=CCC2C(=O)O)C(C)(C)N1 (configuration not stated)
1510

Indicate the recorded LD50 value for this compound: CC1(C)C=C(C(=O)NCCCNC(=O)COc2ccccc2)C(C)(C)N1
49

Indicate the recorded LD50 value for this compound: COc1ccc(CNC(=O)C2=CC(C)(C)NC2(C)C)cc1
66

Indicate the recorded LD50 value for this compound: Cc1cccc(C)c1NC(=O)C(C)NCCNC(=O)C1=CC(C)(C)NC1(C)C (configuration not stated)
39

Source: ChEMBL document CHEMBL1123299
